The origin of these recorded values is the Human Domainome abundance scans (Beltran et al. 2025).

The reader will find reported abundance fitness values listed item by item below.
B1: Protein piccolo, residues 1058 to 1114; numbered along this chain, Q9Y6V0 (parent)
chain: TCPLCKTELNIGSKDPPNFNTCTECKNQVCNLCGFNPTPHLTEIQEWLCLNCQTQRA

Variants of: B1
Assay: abundance fitness (aPCA) (normalised: wild type 0, dead -1); higher = more abundant; growth selection in yeast, the domain comes from the species named
Settings: Homo sapiens
Kindly provide the number alone.

**Query** Can you look up the measured abundance fitness of C2K for me?
**Result** -0.831

**Query** Field entry: P17Y
**Result** -0.53

**Query** // query: L50T
**Result** 0.208

**Query** Further, for L32V ?
**Result** 0.104

**Query** Further, for L9P ?
**Result** -0.197

**Query** Thanks! And K6H ?
**Result** -0.142

**Query** Now give it for K14M too.
**Result** -0.128

**Query** Then P39A ?
**Result** 0.018

**Query** Subsequent entry: S13E
**Result** -0.257

**Query** // query: I44W
**Result** -0.312

**Query** What do you have for H40F ?
**Result** -0.105

**Query** Likewise for N31F ?
**Result** 0.117

**Query** # repeat for L4K
**Result** -0.569

**Query** And the next one, N20T ?
**Result** 0.067

**Query** Input C30E
**Result** -0.532

**Query** Now consider N20G .
**Result** 0.055

**Query** Please give the result for P37M too.
**Result** -0.098

**Query** What do you get for E24M ?
**Result** -0.06

**Query** What do you get for N20F ?
**Result** -0.051

**Query** What do we get for T42P ?
**Result** -0.137

**Query** And then C25T , what is it?
**Result** -0.606

**Query** // query: P16R
**Result** -0.179
